- Assay info: Therapeutic index, ratio of HC10 for mouse RBC to IC50 for cytotoxicity against human A549 cells
- Type: toxicity, cell-based
- Cond: mouse RBC and A549 cells, read-out: TI
Residues, ends and D or L forms follow the SMILES beside them.
Criterion: selectivity ratio meeting or surpassing 0.9. Met: 1. Not met: -1.

>  <Compound>
CC(C)C[C@H](NC(=O)[C@H](CC(C)C)NC(=O)[C@H](CCCCN)NC(=O)[C@H](CCCCN)NC(=O)[C@H](CC(C)C)NC(=O)[C@H](CC(C)C)NC(=O)[C@H](CCCCN)NC(=O)[C@H](CCCCN)NC(=O)[C@H](CCC(=O)O)NC(=O)[C@H](CC(C)C)NC(=O)[C@H](CCCCN)NC(=O)[C@H](CCCCN)NC(=O)[C@H](CC(C)C)NC(=O)[C@@H](N)CC(C)C)C(N)=O (H-LLKKLEKKLLKKLL-NH2)

>  <Assigned label>
1

$$$$
>  <Compound>
CC(C)C[C@H](NC(=O)[C@H](CC(C)C)NC(=O)[C@H](CCCCN)NC(=O)[C@H](CCCCN)NC(=O)[C@H](CC(C)C)NC(=O)[C@H](CC(C)C)NC(=O)[C@H](CCCCN)NC(=O)[C@H](CCCCN)NC(=O)[C@H](CC(C)C)NC(=O)[C@H](CCC(=O)O)NC(=O)[C@H](CCCCN)NC(=O)[C@H](CCCCN)NC(=O)[C@H](CC(C)C)NC(=O)[C@@H](N)CC(C)C)C(N)=O (H-LLKKELKKLLKKLL-NH2)

>  <Assigned label>
1

$$$$

Record CC(C)C[C@H](NC(=O)[C@H](CC(C)C)NC(=O)[C@H](CCCCN)NC(=O)[C@H](CCCCN)NC(=O)[C@H](CC(C)C)NC(=O)[C@H](CC(C)C)NC(=O)[C@H](CCCCN)NC(=O)[C@H](CCCCN)NC(=O)[C@H](CC(C)C)NC(=O)[C@H](CC(C)C)NC(=O)[C@H](CCCCN)NC(=O)[C@@H](N)CCCCN)C(=O)N[C@@H](CCCCN)C(N)=O (H-KKLLKKLLKKLLK-NH2) ; criterion: selectivity ratio no lower than 0.9. Met? 1

Can you check CC(C)C[C@H](NC(=O)[C@H](CCCCN)NC(=O)[C@H](CC(C)C)NC(=O)[C@H](CC(C)C)NC(=O)[C@H](CCCCN)NC(=O)[C@H](CCCCN)NC(=O)[C@H](CC(C)C)NC(=O)[C@H](CC(C)C)NC(=O)[C@H](CCCCN)NC(=O)[C@H](CCCCN)NC(=O)[C@H](CC(C)C)NC(=O)[C@H](CC(C)C)NC(=O)[C@H](CCCCN)NC(=O)[C@H](CCCCN)NC(=O)[C@H](CC(C)C)NC(=O)[C@H](CC(C)C)NC(=O)[C@@H](N)CCCCN)C(N)=O (H-KLLKKLLKKLLKKLLKL-NH2) next? -1

Can you check CC(C)C[C@H](NC(=O)[C@H](CC(C)C)NC(=O)[C@H](CCCCN)NC(=O)[C@H](CCCCN)NC(=O)[C@H](CC(C)C)NC(=O)[C@H](CC(C)C)NC(=O)[C@H](CCCCN)NC(=O)[C@H](CCCCN)NC(=O)[C@H](CC(C)C)NC(=O)[C@H](CC(C)C)NC(=O)[C@H](CCCCN)NC(=O)[C@H](CCC(=O)O)NC(=O)[C@H](CC(C)C)NC(=O)[C@@H](N)CC(C)C)C(N)=O (H-LLEKLLKKLLKKLL-NH2) next? -1
